Source listed as paper PMC10298284.

- Assay Target: recombinant human LDHB (Homo sapiens, UniProt P07195)
- Construct: purchased Abcam
- Sequence (P07195 whole entry): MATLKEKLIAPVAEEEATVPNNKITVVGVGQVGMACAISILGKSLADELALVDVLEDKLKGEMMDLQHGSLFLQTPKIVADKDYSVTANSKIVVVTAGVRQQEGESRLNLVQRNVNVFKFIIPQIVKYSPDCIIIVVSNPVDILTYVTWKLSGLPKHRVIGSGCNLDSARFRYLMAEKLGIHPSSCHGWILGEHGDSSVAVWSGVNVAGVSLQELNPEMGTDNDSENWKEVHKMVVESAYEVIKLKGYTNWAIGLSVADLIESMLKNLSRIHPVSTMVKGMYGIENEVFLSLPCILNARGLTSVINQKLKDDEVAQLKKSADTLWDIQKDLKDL
- Method: hLDHB enzymatic activity assay (same fluorimetric protocol)
- Format: biochemical
- Condition Summary: supplementary dose response curves; mean ± SD of n = 3 replicates; µM only on the axis label; read-out: IC50 (hLDHB inhibition curve)
Value Type: IC50 (µM)

>>> reported_measurement("COc1ccc([C@]23C[C@H](C4=C(C[C@@H](c5ccccc5)OC4=O)O2)c2ccccc2O3)cc1OC (racemic) [(±)-62a]")
150
>>> reported_measurement("Oc1ccc(C23CC(c4ccccc4O2)c2c(O)cc(O)cc2O3)cc1 (racemic) [(±)-4]")
45.9
>>> reported_measurement("Oc1cc(O)c2c(c1)OC1(c3ccc(O)c(O)c3)CC2c2ccccc2O1 (racemic) [(±)-1]")
35.4

----------
Entries annotated with measured IC50
- Assay Target: recombinant human LDHA (Homo sapiens, UniProt P00338)
- Construct: purchased Abcam
- Method: hLDHA enzymatic activity assay (kinetic spectrofluorimetric, β-NADH fluorescence decrease)
- Type: biochemical
- Condition Summary: supplementary dose response curves; mean ± SD of n = 3 replicates; µM only on the axis label; read-out: IC50 (hLDHA inhibition curve)
Value Type: IC50

>>> reported_measurement("COc1ccc(C23CC(C4=C(O2)C(=O)c2ccccc2C4=O)c2ccccc2O3)cc1OC (racemic) [(±)-57]")
"42.2 µM"
>>> reported_measurement("COc1ccc(C2CC3=C(C(=O)O2)C2CC(c4ccc(OC)c(OC)c4)(O3)Oc3ccc(Cl)cc32)cc1 (racemic) [(±)-70b]")
"20.2 µM"
>>> reported_measurement("COc1ccc(C23CC(C4=C(CC(c5ccccc5)OC4=O)O2)c2cc([N+](=O)[O-])ccc2O3)cc1OC (racemic) [(±)-65b]")
"8.5 µM"
>>> reported_measurement("COc1ccc(C2CC3=C(C(=O)O2)C2CC(c4ccc(OC)c(OC)c4)(O3)Oc3ccc(Cl)cc32)cc1 (racemic) [(±)-70a]")
"112 µM"
>>> reported_measurement("COc1ccc(C2CC3=C(C(=O)O2)C2CC(c4ccc(OC)c(OC)c4)(O3)Oc3ccc([N+](=O)[O-])cc32)cc1 (racemic) [(±)-67a]")
"14.8 µM"
>>> reported_measurement("COc1ccc(C23CC(c4ccccc4O2)c2c(O)cc(O)cc2O3)cc1OC (racemic) [(±)-42]")
"154 µM"
>>> reported_measurement("COc1ccc(C23CC(C4=C(CC(c5ccc(Cl)cc5)OC4=O)O2)c2cc(Cl)ccc2O3)cc1OC (racemic) [(±)-69a]")
"20 µM"
>>> reported_measurement("COc1ccc(C23CC(C4=C(CC(c5ccc(Cl)cc5)OC4=O)O2)c2cc([N+](=O)[O-])ccc2O3)cc1OC (racemic) [(±)-66b]")
"6 µM"
>>> reported_measurement("COc1ccc(C2CC3=C(C(=O)O2)C2CC(c4ccc(OC)c(OC)c4)(O3)Oc3ccccc32)cc1 (racemic) [(±)-64b]")
"96.7 µM"
>>> reported_measurement("COc1ccc(C23CC(C4=C(CC(c5ccc(Cl)cc5)OC4=O)O2)c2cc([N+](=O)[O-])ccc2O3)cc1OC (racemic) [(±)-66a]")
"5.8 µM"

----------
- Assay Target: recombinant human LDHA (Homo sapiens)
- Construct: purchased Abcam
- Method: hLDHA enzymatic activity assay (kinetic spectrofluorimetric, β-NADH fluorescence decrease)
- Assay type: biochemical
- Condition Summary: supplementary dose response curves; mean ± SD of n = 3 replicates; µM only on the axis label; read-out: IC50 (hLDHA inhibition curve)
Value Type: IC50 (µM)

>>> reported_measurement("COc1ccc(C23CC(C4=C(CC(c5ccccc5)OC4=O)O2)c2cc([N+](=O)[O-])ccc2O3)cc1OC (racemic) [(±)-65a]")
12.5
>>> reported_measurement("COc1ccc(C23CC(c4cc(Cl)ccc4O2)c2c(c4ccccc4oc2=O)O3)cc1OC (racemic) [(±)-50]")
13.2
>>> reported_measurement("COc1ccc([C@]23C[C@H](C4=C(C[C@H](c5ccccc5)OC4=O)O2)c2ccccc2O3)cc1OC (racemic) [(±)-62b]")
39.4
>>> reported_measurement("O=C1C2=C(C(=O)c3ccccc31)C1CC(c3ccc(O)c(O)c3)(O2)Oc2ccc([N+](=O)[O-])cc21 (racemic) [(±)-55]")
27.4
>>> reported_measurement("COc1ccc(C23CC(c4cc([N+](=O)[O-])ccc4O2)c2c(O)cc(O)cc2O3)cc1OC (racemic) [(±)-43]")
8.2
>>> reported_measurement("COc1ccc([C@]23C[C@H](C4=C(C[C@@H](c5ccccc5)OC4=O)O2)c2ccccc2O3)cc1OC (racemic) [(±)-62a]")
3.6
>>> reported_measurement("O=c1oc2ccccc2c2c1C1CC(c3ccc(O)cc3)(Oc3ccccc31)O2 (racemic) [(±)-51]")
34.4
>>> reported_measurement("COc1ccc(C2CC3=C(C(=O)O2)C2CC(c4ccc(OC)c(OC)c4)(O3)Oc3ccccc32)cc1 (racemic) [(±)-64a]")
52.8
>>> reported_measurement("COc1ccc(C23CC(c4ccccc4O2)c2c(c4ccccc4oc2=O)O3)cc1OC (racemic) [(±)-48]")
49.6
>>> reported_measurement("COc1ccc(C2CC3=C(C(=O)O2)C2CC(c4ccc(OC)c(OC)c4)(O3)Oc3ccc([N+](=O)[O-])cc32)cc1 (racemic) [(±)-67b]")
14.6
>>> reported_measurement("COc1ccc(C23CC(C4=C(CC(c5ccc(Cl)cc5)OC4=O)O2)c2cc(Cl)ccc2O3)cc1OC (racemic) [(±)-69b]")
14.2
>>> reported_measurement("O=c1oc2ccccc2c2c1C1CC(c3ccc(O)c(O)c3)(Oc3ccc(Cl)cc31)O2 (racemic) [(±)-47]")
9.1
>>> reported_measurement("O=c1oc2ccccc2c2c1C1CC(c3ccc(O)cc3)(Oc3ccc([N+](=O)[O-])cc31)O2 (racemic) [(±)-52]")
36.9
>>> reported_measurement("COc1ccc(C23CC(c4cc([N+](=O)[O-])ccc4O2)c2c(c4ccccc4oc2=O)O3)cc1OC (racemic) [(±)-49]")
25.7
>>> reported_measurement("O=C1C2=C(C(=O)c3ccccc31)C1CC(c3ccc(O)c(O)c3)(O2)Oc2ccc(Cl)cc21 (racemic) [(±)-56]")
13.7
